Tested system: Flavivirus NS5 methyltransferase / guanylyltransferase (capping enzyme)
Method description: flavivirus capping enzyme inhibitors, confirmation, biochemical (AID 602308)
Condition parameters: Flavivirus NS5 capping enzyme biochemical inhibition assay
Observable: IC50

Field: example entries. Status: answers known.
{"columns": ["Substance smiles", "IC50"],
 "data": [
  ["O=S(=O)(Nc1cc(Sc2ncn[nH]2)c(O)c2ccccc12)c1ccc(F)cc1", "10.2 µM"],
  ["O=C(O)CSc1cc(NS(=O)(=O)c2ccc(Br)cc2)c2ccccc2c1O", "4.96 µM"],
  ["Cc1cc(F)ccc1S(=O)(=O)Nc1cc(SCC(=O)O)c(O)c2ccccc12", "5.66 µM"],
  ["Cn1c(=O)c2[nH]c(-c3ccccc3)c(O)c2n(C)c1=O", "28.1 µM"],
  ["O=[N+]([O-])c1cccc(S(=O)(=O)Nc2cc(SCc3ccccc3)c(O)c3ccccc23)c1", "14.8 µM"],
  ["O=C(O)CSc1cc(NS(=O)(=O)c2cccc([N+](=O)[O-])c2)c2ccccc2c1O", "3.83 µM"],
  ["Cc1ccc(S(=O)(=O)Nc2cc(Sc3nc(C)cc(C)n3)c(O)c3ccccc23)cc1", "83.8 µM"],
  ["Cc1ccc(S(=O)(=O)Nc2cc(SCC(=O)O)c(O)c3ccccc23)cc1", "6.24 µM"],
  ["O=S(=O)(Nc1cc(Sc2ccccc2)c(O)c2ccccc12)c1ccc(F)cc1", "35.6 µM"],
  ["COc1ccc(OC)c(S(=O)(=O)Nc2cc(SCC(=O)O)c(O)c3ccccc23)c1", "9.09 µM"]
]}

Query: IC50 of `Cn1c(=O)c2[nH]c(-c3ccc(Cl)cc3)c(O)c2n(C)c1=O` on Flavivirus NS5 methyltransferase / guanylyltransferase (capping enzyme)?
Response: 57.8 µM

Query: IC50 of `O=[N+]([O-])c1cccc(S(=O)(=O)Nc2cc(Sc3nc4ccccc4s3)c(O)c3ccccc23)c1` on Flavivirus NS5 methyltransferase / guanylyltransferase (capping enzyme)?
Response: 34.3 µM

Query: IC50 of `O=C(O)CSc1cc(NS(=O)(=O)c2ccc(F)cc2)c2ccccc2c1O` on Flavivirus NS5 methyltransferase / guanylyltransferase (capping enzyme)?
Response: 7.32 µM

Query: IC50 of `Cc1cc(C)c(S(=O)(=O)Nc2cc(SCC(=O)O)c(O)c3ccccc23)c(C)c1` on Flavivirus NS5 methyltransferase / guanylyltransferase (capping enzyme)?
Response: 6.95 µM

Query: IC50 of `O=C(O)CSc1cc(NS(=O)(=O)c2ccc(Cl)cc2)c2ccccc2c1O` on Flavivirus NS5 methyltransferase / guanylyltransferase (capping enzyme)?
Response: 5.45 µM

Query: IC50 of `O=S(=O)(Nc1cc(SCc2ccccc2)c(O)c2ccccc12)c1ccc(Cl)cc1` on Flavivirus NS5 methyltransferase / guanylyltransferase (capping enzyme)?
Response: 43.3 µM

Query: IC50 of `O=S(=O)(Nc1cc(Cl)c(O)c2ccccc12)c1ccc(F)cc1` on Flavivirus NS5 methyltransferase / guanylyltransferase (capping enzyme)?
Response: 17.8 µM

Query: IC50 of `O=C(O)CSc1cc(NS(=O)(=O)c2cccc3cccnc23)c2ccccc2c1O` on Flavivirus NS5 methyltransferase / guanylyltransferase (capping enzyme)?
Response: 6.62 µM
